Measured values drawn from paper PMC11995216 for this set.

System: PAMPA
Conditions: Papp (x 10^-6 cm/s) / experiment 6; UV detection
assayMetric: Papp (×10⁻⁶ cm/s)

Some compounds with known Papp results, for comparison:
CCCCC[C@H](OC(=O)[C@@H](C)N(C)C(=O)OC(C)(C)C)C(=O)OCc1ccccc1    4.51
CCCCC[C@H](OC(=O)[C@@H](C)N(C)C(=O)[C@H](CCCCC)OC(=O)[C@@H](C)N(C)C(=O)OC(C)(C)C)C(=O)OCc1ccccc1    3.4
CCCCC[C@H](OC(=O)[C@@H](C)N(C)C(=O)[C@H](CCCCC)OC(=O)[C@@H](C)N(C)C(=O)[C@H](CCCCC)OC(=O)[C@@H](C)N(C)C(=O)[C@H](CCCCC)OC(=O)[C@@H](C)N(C)C(=O)[C@H](CCCCC)OC(=O)[C@@H](C)N(C)C(=O)OC(C)(C)C)C(=O)OCc1ccccc1    1.9

(I) CCCCC[C@H](OC(=O)[C@@H](C)N(C)C(=O)[C@H](CCCCC)OC(=O)[C@@H](C)N(C)C(=O)[C@H](CCCCC)OC(=O)[C@@H](C)N(C)C(=O)OC(C)(C)C)C(=O)OCc1ccccc1
(II) CCCCC[C@H](OC(=O)[C@@H](C)N(C)C(=O)[C@H](CCCCC)OC(=O)[C@@H](C)N(C)C(=O)[C@H](CCCCC)OC(=O)[C@@H](C)N(C)C(=O)[C@H](CCCCC)OC(=O)[C@@H](C)N(C)C(=O)OC(C)(C)C)C(=O)OCc1ccccc1
Problem: So which one has the bigger Papp here, I or II ? I would appreciate it if you answered with the label of your choice.
Solution: I
(I: 3.34 ×10⁻⁶ cm/s, II: 2.09 ×10⁻⁶ cm/s)
